# assayed target: Arginase-1 (Homo sapiens)
# Sequence (P05089 whole entry): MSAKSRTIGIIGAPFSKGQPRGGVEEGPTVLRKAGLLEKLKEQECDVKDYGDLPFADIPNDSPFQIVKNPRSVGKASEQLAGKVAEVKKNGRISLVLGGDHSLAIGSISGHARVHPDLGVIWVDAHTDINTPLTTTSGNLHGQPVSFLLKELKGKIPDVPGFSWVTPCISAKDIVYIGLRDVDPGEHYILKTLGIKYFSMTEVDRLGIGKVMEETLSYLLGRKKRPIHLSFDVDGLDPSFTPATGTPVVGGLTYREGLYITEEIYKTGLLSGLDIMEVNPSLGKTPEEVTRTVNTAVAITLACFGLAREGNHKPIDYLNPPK
# test protocol: Inhibition of human recombinant arginase 1 expressed in Escherichia coli BL21 (DE3) assessed as reduction in urea production using L-arginine as substrate in presence of MnSO4 incubated for 60 mins by o-phthaldialdehyde/N-(1-naphthyl)ethylene-diamine dihydrochloride reagent based colorimetric assay
# run conditions: read-out: IC50
measured metric: pIC50
FYI, pIC50 means -log10 of a concentration in mol per litre.

Worked cases, pIC50 given:
>>> measured_number("N[C@@H](Cc1ccccc1)CN1C[C@H](CCCB(O)O)[C@](N)(C(=O)O)C1")
8.89
>>> measured_number("Cc1nn(C)c(C)c1CN1C[C@H](CCCB(O)O)[C@](N)(C(=O)O)C1")
6.47
>>> measured_number("N[C@@]1(C(=O)O)CN(Cc2cncs2)C[C@@H]1CCCB(O)O")
6.44
>>> measured_number("Cc1[nH]ncc1CN1C[C@H](CCCB(O)O)[C@](N)(C(=O)O)C1")
6.40
>>> measured_number("C[C@H](N)CN1C[C@H](CCCB(O)O)[C@](N)(C(=O)O)C1")
8.11
>>> measured_number("Cn1ccnc1CN1C[C@H](CCCB(O)O)[C@](N)(C(=O)O)C1")
7.00
>>> measured_number("N[C@@]1(C(=O)O)CN(Cc2cccnc2)C[C@@H]1CCCB(O)O")
6.33
>>> measured_number("N[C@@]1(C(=O)O)CN(Cc2ccccc2)C[C@@H]1CCCB(O)O")
6.52
>>> measured_number("N[C@H](CN1C[C@H](CCCB(O)O)[C@](N)(C(=O)O)C1)c1ccccc1")
8.60
>>> measured_number("N[C@@]1(C(=O)O)CCC[C@@H]1CCCB(O)O")
6.68

State the recorded pIC50 for this entry: `N[C@@]1(C(=O)O)CN(Cc2ccncc2)C[C@@H]1CCCB(O)O`
6.22

// query pIC50 value for entry NC1(C(=O)O)CCCC1CCCB(O)O (racemic; 8)
6.42

Fill in: pIC50 of `N[C@@]1(C(=O)O)CN(C[C@@H]2CCCCN2)C[C@@H]1CCCB(O)O` is ___
7.52

Suppose we examine the molecule NC1(C(=O)O)CCCC1CCCB(O)O (racemic; 9) ; what pIC50 value has been reported?
4.32

Sample `N[C@@]1(C(=O)O)CNC[C@@H]1CCCB(O)O` — what was its pIC50?
6.96

# lookup: pIC50 of `N[C@@]1(C(=O)O)CN(C[C@H]2CCCN2)C[C@@H]1CCCB(O)O`
8.00

Dear colleague, I am looking for the recorded pIC50 of the following molecule: `N[C@@]1(C(=O)O)CN(C[C@H]2COCCN2)C[C@@H]1CCCB(O)O`
7.72

Recorded pIC50 for `N[C@@]1(C(=O)O)CN(C[C@@H]2CCCN2)C[C@@H]1CCCB(O)O` , please?
7.96

Which measured pIC50 value corresponds to `N[C@@H](CCCCB(O)O)C(=O)O` ?
5.81

# query: pIC50 of entry `C[C@@H](N)CN1C[C@H](CCCB(O)O)[C@](N)(C(=O)O)C1`
7.80

Item `N[C@@]1(C(=O)O)CN(Cc2ccccn2)C[C@@H]1CCCB(O)O` has what recorded pIC50?
6.42

Fill blank: measured pIC50 of the molecule `N[C@@H](CN1C[C@H](CCCB(O)O)[C@](N)(C(=O)O)C1)c1ccccc1` is ____.
7.74
